- target-or-system: T1, orthogonal hCD122 receptor (hoRb), hCD122 with H133D and Y134F (human, UniProt P14784 27-550)
- T1 sequence: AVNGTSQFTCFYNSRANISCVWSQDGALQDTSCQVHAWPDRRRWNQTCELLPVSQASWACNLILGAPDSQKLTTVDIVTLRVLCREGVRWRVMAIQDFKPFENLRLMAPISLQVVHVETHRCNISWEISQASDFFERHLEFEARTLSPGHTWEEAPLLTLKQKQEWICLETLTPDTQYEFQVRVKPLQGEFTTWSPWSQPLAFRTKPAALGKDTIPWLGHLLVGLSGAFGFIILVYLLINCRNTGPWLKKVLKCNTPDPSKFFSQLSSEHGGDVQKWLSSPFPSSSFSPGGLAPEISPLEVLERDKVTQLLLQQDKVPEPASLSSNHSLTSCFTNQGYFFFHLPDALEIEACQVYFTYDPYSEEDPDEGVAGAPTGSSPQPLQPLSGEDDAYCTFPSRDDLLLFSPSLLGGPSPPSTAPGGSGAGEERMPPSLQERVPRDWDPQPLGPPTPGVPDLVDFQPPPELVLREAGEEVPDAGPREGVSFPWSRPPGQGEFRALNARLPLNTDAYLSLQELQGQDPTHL
- experiment-description: cell-based or functional assay
For each of the binders below, state its 3F8 Ortho Proliferation Signal 1:2.
Answers are plain numbers, in cts/min.

Below, 3 binders whose answers are already recorded.
Q74N, SQVLKA (ligand) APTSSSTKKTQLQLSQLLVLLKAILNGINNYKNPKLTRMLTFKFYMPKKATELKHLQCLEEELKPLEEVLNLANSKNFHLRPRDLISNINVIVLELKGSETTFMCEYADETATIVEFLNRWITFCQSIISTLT | 34200
Q126T, SQVLKA (ligand) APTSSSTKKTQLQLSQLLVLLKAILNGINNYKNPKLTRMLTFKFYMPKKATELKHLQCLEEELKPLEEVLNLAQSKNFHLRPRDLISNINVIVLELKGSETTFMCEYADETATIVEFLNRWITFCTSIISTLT | 3380
V91K, SQVLKA (ligand) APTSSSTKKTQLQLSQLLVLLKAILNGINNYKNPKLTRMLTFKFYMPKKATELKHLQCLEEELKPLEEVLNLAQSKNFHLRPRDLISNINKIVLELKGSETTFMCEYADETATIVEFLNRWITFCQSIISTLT | 3720

Switching to the query record.
Request: Find the recorded 3F8 Ortho Proliferation Signal 1:2 belonging to SQVLLA (ligand) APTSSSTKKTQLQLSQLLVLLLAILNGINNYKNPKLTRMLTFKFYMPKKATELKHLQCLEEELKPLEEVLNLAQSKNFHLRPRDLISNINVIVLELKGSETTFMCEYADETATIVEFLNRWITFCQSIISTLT and report it.
Response: 19700
